Hello, the source for this data is patent US7863416B2, in case you need it.

target-or-test-system: human ORL1 (Homo sapiens, UniProt P41146)
Construct: expressed in transfected cells; host or cells: CHO cells (G418-selected)
Sequence (P41146 whole entry): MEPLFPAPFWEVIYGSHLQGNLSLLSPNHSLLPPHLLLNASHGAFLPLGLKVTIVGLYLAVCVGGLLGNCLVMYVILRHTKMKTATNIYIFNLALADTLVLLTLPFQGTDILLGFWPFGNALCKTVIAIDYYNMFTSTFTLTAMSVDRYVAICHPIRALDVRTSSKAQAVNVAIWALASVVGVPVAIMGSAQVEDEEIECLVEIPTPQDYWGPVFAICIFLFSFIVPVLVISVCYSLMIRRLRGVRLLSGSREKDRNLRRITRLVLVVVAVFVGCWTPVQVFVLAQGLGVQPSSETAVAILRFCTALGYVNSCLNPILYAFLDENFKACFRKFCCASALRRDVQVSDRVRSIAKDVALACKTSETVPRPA
assay-method-text: Stimulation of [35S]GTPγS binding in membranes of CHO cells transfected with human ORL-1
Assay type: biochemical
test-settings: read-out: % Stimulation ± SEM of [35S]GTPγS binding
Numbered stars: 1 amine (or outer) side, 2 acyl side, 3 side chain; on linkers, the order of the positions; unused ones are H or OH. Square brackets hold non-standard residues; d marks the D form. Peptide text beside a SMILES is read from it. ξ: configuration not given here. Phe(4-NO2) = N[C@@H](Cc1ccc([N+](=O)[O-])cc1)C(=O)O; Tyr(3-Cl) = N[C@@H](Cc1ccc(O)c(Cl)c1)C(=O)O; Dmt = Cc1cc(O)cc(C)c1C[C@H](N)C(=O)O; ξNip = O=C(C1CCCN([*:1])C1)[*:2]; Ahx = NCCCCCC(=O)O
// assign T if Emax falls strictly below 40%, else F (ties count as F)

[[record]]
molecule = "CC(=O)N[C@@H](CCCNC(=N)N)C(=O)N[C@@H](Cc1ccc(O)c(Cl)c1)C(=O)N[C@@H](Cc1ccc(O)cc1)C(=O)N[C@@H](CCCNC(=N)N)C(=O)N[C@@H](Cc1c[nH]c2ccccc12)C(=O)N[C@@H](CCCNC(=N)N)C(N)=O [VII-87-B, Ac-Arg-Tyr(3-Cl)-Tyr-Arg-Trp-Arg-NH2] (Ac-R[Tyr(3-Cl)]YRWR-NH2)"
target_or_test_system = "human ORL1 (Homo sapiens, UniProt P41146)"
class = "F"

[[record]]
molecule = "COc1ccc(C[C@H](NC(=O)[C@H](CCCNC(=N)N)NC(C)=O)C(=O)N[C@@H](Cc2ccc(OC)cc2)C(=O)N[C@@H](CCCNC(=N)N)C(=O)N[C@@H](Cc2c[nH]c3ccccc23)C(=O)N[C@@H](CCCNC(=N)N)C(N)=O)cc1 [VII-37-B] (Ac-RY(Me)Y(Me)RWR-NH2)"
target_or_test_system = "human ORL1 (Homo sapiens, UniProt P41146)"
class = "T"

[[record]]
molecule = "CC(=O)N[C@@H](CCCNC(=N)N)C(=O)N[C@@H](Cc1ccc(O)cc1)C(=O)N[C@@H](Cc1ccc(O)cc1)C(=O)N[C@@H](CCCNC(=N)N)C(=O)N[C@@H](Cc1c[nH]c2ccccc12)C(=O)NCCCCCC(N)=O [VII-57-C] (Ac-RYYRW[Ahx]-NH2)"
target_or_test_system = "human ORL1 (Homo sapiens, UniProt P41146)"
class = "T"

[[record]]
molecule = "CC(=O)N[C@@H](CCCNC(=N)N)C(=O)N[C@@H](Cc1ccc(O)cc1)C(=O)N[C@@H](Cc1c(C)cc(O)cc1C)C(=O)N[C@@H](CCCNC(=N)N)C(=O)N[C@@H](Cc1c[nH]c2ccccc12)C(=O)N[C@@H](CCCNC(=N)N)C(N)=O [VII-73-A] (Ac-RY[Dmt]RWR-NH2)"
target_or_test_system = "human ORL1 (Homo sapiens, UniProt P41146)"
class = "F"

[[record]]
molecule = "CC(=O)N[C@@H](CCCNC(=N)N)C(=O)N[C@@H](Cc1ccc(O)cc1)C(=O)N[C@@H](Cc1ccc([N+](=O)[O-])cc1)C(=O)N[C@@H](CCCNC(=N)N)C(=O)N[C@@H](Cc1c[nH]c2ccccc12)C(=O)N[C@@H](CCCNC(=N)N)C(N)=O [VII-63-B, Ac-Arg-Tyr-Phe(4-NO2)-Arg-Trp-Arg-NH2] (Ac-RY[Phe(4-NO2)]RWR-NH2)"
target_or_test_system = "human ORL1 (Homo sapiens, UniProt P41146)"
class = "F"

[[record]]
molecule = "CC(=O)N[C@@H](CCCNC(=N)N)C(=O)N[C@@H](Cc1ccc(O)cc1)C(=O)N[C@@H](Cc1ccc(O)cc1)C(=O)NCCCCCC(=O)N[C@@H](Cc1c[nH]c2ccccc12)C(=O)N[C@@H](CCCNC(=N)N)C(N)=O [VII-55-A] (Ac-RYY[Ahx]WR-NH2)"
target_or_test_system = "human ORL1 (Homo sapiens, UniProt P41146)"
class = "T"

[[record]]
molecule = "N=C(N)NCCC[C@H](NC(=O)[C@H](Cc1c[nH]c2ccccc12)NC(=O)[C@H](CCCNC(=N)N)NC(=O)[C@H](Cc1ccc(O)cc1)NC(=O)[C@H](Cc1ccc(O)cc1)NC(=O)[C@H](CCCNC(=N)N)NC(=O)C1CCCNC1)C(N)=O (stereo partly drawn) [VII-1-A, Nipacotyl-Arg-Tyr-Tyr-Arg-Trp-Arg-NH2] (ξNip-RYYRWR-NH2)"
target_or_test_system = "human ORL1 (Homo sapiens, UniProt P41146)"
class = "T"

